# Tested on: Plasmodium berghei
# ASSAY_METHOD_TEXT: Screen against P. berghei liver stage (PbLuc), transformed with Luciferase, at 10uM
# Assay type: functional, HepG2
# CONDITION_NOTES: tested at 10 uM
Hit rate of the full screen: of about 69,000 compounds, about 8,600 (12%) showed an effect of 50% or more. The list comes from a sample in which strong results are over-represented; it also holds close analogues and randomly drawn compounds.
Please assign no (0) whenever INHIBITION is at or above 10%, and yes (1) whenever it is below.

I wonder whether `CCCN(C)c1ncc2c(n1)N(C)CCN(CC1CC1)C2=O` has INHIBITION below 10%. Can you tell?
yes (1)

I wonder whether `Cc1cc(C)cc(NCCC(=O)NC2CCN(C(=O)C3CC3)CC2)c1` has INHIBITION below 10%. Can you tell?
yes (1)

I wonder whether `Cc1nc(CCCNC(=O)c2cc(F)ccc2O)n[nH]1` has INHIBITION below 10%. Can you tell?
no (0)

I wonder whether `Cc1noc(C)c1CNC(=O)Nc1ccc(N2CCOC2=O)cc1` has INHIBITION below 10%. Can you tell?
no (0)

I wonder whether `COC(=O)c1ccc(CN2CCN(Cc3nc(C)no3)CC2)s1` has INHIBITION below 10%. Can you tell?
no (0)

I wonder whether `COc1cccc(CCC(=O)N2CCC[C@@H](N)[C@@H]2c2ccccc2F)c1` has INHIBITION below 10%. Can you tell?
no (0)

I wonder whether `CN1CCN(CC2CC2)C(=O)c2cnc(N3CCCC3)nc21` has INHIBITION below 10%. Can you tell?
no (0)

I wonder whether Cc1nnc(CN2CCN(C(C)c3nc(C4CC4)no3)CC2)o1 (centres undefined) has INHIBITION below 10%. Can you tell?
yes (1)

I wonder whether `CN(C)CCN1CCN(C)c2nc(-c3ccccc3)ncc2C1=O` has INHIBITION below 10%. Can you tell?
no (0)
